Target: T1, APC6108-AA
T1 chain: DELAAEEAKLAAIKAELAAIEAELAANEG
Assay: two-hybrid library CCmax;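 also: natural log of median RNA to DNA barcode read ratio; higher means stronger binding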
Conditions: mean of both orientations
measured_endpoint: interaction score
Form rule: numeric answer, no unit written next to it.

Looking up DEAAALEAEAAALEAKAAALKAKLAAEKG [APC2237-AA] , I see its interaction score listed as -1.71

Lookup result for DKLAAIKAELAAIEAKLAAIKAKNAALKG [APC1015-AA] ; measured interaction score: 0.792

Noted for DENAALEAEAAALEAELAAEEAENAALEG [APC4264-AA] : its interaction score reads -1.5

Entry under test: DKAAALKAELAAEEAENAALEAKNAALKG [APC3645-AA] . Its interaction score was -1.68

Entry under test: DKIAALEAKNAALEAENAALKAEIAALKG [4H2458-AA] . Its interaction score was -1.71

Record DEAAALEAENAALEAELAAIEAKNAALKG [APC2405-AA] , field interaction score: -1.24

interaction score recorded for this binder, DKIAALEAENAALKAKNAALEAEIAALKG [4H2290-AA] , is -1.54
